Source listed as ChEMBL document CHEMBL6153156.

# inhibition listing for each entry below
- targetUnderTest: UniProt:Q9UBN7
- Sequence (Q9UBN7 whole entry): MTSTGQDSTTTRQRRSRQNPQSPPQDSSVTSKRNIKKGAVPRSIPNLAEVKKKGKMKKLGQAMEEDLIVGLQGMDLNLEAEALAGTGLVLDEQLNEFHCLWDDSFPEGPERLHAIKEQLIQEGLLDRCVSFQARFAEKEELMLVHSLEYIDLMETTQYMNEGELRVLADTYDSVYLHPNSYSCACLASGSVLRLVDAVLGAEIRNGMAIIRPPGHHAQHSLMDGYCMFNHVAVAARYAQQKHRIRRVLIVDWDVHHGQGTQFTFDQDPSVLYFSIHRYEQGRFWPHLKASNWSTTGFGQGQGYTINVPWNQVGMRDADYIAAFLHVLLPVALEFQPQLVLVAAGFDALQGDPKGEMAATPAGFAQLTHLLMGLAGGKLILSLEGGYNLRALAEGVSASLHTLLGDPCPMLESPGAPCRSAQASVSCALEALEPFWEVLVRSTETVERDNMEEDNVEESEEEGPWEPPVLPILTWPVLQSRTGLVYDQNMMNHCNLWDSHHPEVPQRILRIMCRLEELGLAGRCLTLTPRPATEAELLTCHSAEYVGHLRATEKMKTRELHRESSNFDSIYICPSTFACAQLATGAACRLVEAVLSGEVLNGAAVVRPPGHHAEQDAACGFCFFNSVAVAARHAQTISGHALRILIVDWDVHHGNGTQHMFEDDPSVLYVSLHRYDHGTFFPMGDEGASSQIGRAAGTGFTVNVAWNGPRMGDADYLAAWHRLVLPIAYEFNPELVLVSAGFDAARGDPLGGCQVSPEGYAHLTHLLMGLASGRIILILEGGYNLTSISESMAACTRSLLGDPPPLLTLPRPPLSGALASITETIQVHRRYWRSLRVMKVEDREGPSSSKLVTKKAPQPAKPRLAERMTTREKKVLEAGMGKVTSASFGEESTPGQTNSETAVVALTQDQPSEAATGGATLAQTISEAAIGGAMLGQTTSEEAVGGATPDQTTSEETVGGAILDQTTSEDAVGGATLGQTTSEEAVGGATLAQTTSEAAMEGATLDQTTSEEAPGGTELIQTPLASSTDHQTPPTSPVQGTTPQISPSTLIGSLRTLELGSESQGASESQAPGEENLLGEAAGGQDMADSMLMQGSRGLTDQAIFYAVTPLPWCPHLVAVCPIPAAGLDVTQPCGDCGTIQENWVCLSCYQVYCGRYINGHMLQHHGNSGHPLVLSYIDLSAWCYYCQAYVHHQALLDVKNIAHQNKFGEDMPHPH
- testProtocol: Inhibition of full length HDAC6 (unknown origin) extracted from Sf9 insect cells at 10 uM preincubated for 60 mins followed by substrate addition and measured after 20 mins by luminescence based HDAC-GloTM I/II assay relative to control
- Format: cell-free
- conditionSummary: time 80.0 min
endpoint: inhibition (%)

> print(dat)
                                   compound  targetundertest  endpointresult
1  O=C1c2cc(-c3nnc(C(F)F)o3)ccc2CN1[C@H](c1cccnn1)[C@@H](O)c1cccc(Cl)c1   UniProt:Q9UBN7             101
2  O=C1c2cc(-c3nnc(C(F)F)o3)ccc2CN1[C@H](C1CC1)[C@@H](O)c1cccc(F)c1   UniProt:Q9UBN7             100
3  O=C1c2cc(-c3nnc(C(F)F)o3)ccc2CN1[C@@H](c1ccccn1)[C@H](O)c1ccccn1   UniProt:Q9UBN7             100
4  O=C1c2cc(-c3nnc(C(F)F)o3)ccc2CN1[C@H](c1ccccn1)[C@@H](O)c1ccc(C(F)(F)F)cn1   UniProt:Q9UBN7              99
5  O=C1c2cc(-c3nnc(C(F)F)o3)ccc2CN1[C@H](c1ccc(F)cc1)[C@@H](O)C1CCOCC1 (racemic)   UniProt:Q9UBN7              99
6  O=C1c2cc(-c3nnc(C(F)F)o3)ccc2CN1[C@H](C1CC1)[C@@H](O)c1ccc(F)cn1   UniProt:Q9UBN7             100
7  O=C1c2cc(-c3nnc(C(F)F)o3)ccc2CN1[C@H](c1ccc(F)cc1)[C@@H](O)c1ccc(F)nc1   UniProt:Q9UBN7              99
8  O=C1c2cc(-c3nnc(C(F)F)o3)ccc2CN1[C@H](c1cnccn1)[C@@H](O)c1cccc(Cl)c1   UniProt:Q9UBN7             100
